target_or_system: hCLEC12A-His fusion protein (human) (UniProt Q5QGZ9)
Sequence (Q5QGZ9 65-265 limits assumed): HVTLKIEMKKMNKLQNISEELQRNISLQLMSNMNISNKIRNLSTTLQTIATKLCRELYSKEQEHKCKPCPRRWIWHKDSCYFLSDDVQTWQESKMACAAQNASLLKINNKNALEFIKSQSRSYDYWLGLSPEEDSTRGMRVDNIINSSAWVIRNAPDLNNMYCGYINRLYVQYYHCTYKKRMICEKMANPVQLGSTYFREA
assay_info: SPR screening, semi-purified protein
reported_metric: kon (M⁻¹ s⁻¹)
Give the quantity in M⁻¹ s⁻¹, number only.

q: Which value of kon has been reported for AB0185 (bispecific antibody, part only; not given: Fc, unrelated binder arm, linkers, not shown: another chain or arm of the molecule; a dimerising Fc or GST; small tags and cut ends) scFv: DIQMTQSPSSLSASVGDRVTITCKASQDIYNYLSWFQQKPGKAPKPLIYRANILVSGVPSRFSGSGSGQDYTFTISSLQPEDIATYYCLQFDAFPFTFGCGTKLEIKGGGGSGGGGSGGGGSGGGGSEVQLVESGGGVVQPGGSLRLSCAASGFTFNSFGMHWVRQAPGKCLEWVAFISSGSTSIYYANTVKGRFTISRDNSKNTLYLQMNSLRAEDTAVYYCARDGYPTGGAMDYWGQGTSVTVSS in the records?
a: 726000

q: Request the reported kon associated with AB0189 (bispecific antibody, part only; not given: Fc, unrelated binder arm, linkers, not shown: another chain or arm of the molecule; a dimerising Fc or GST; small tags and cut ends) scFv: DIKMTQSPSSLSASVGDRVTITCKASQDIYNYLSWFQQKPGKAPKPLIYRANILVSGVPSRFSGSGSGQDYTLTISSLQPEDIATYYCLQFDAFPFTFGCGTKLEIKGGGGSGGGGSGGGGSGGGGSEVQLVESGGGVVQPGGSLRLSCAASGFTFNAFGMHWVRQAPGKCLEWVAFISSGSTSIYYANTVKGRFTISRDNSKNTLYLQMNSLRAEDTAVYYCARDGYPTGGAMDYWGQGTSVTVSS
a: 1.04e+06
